B1: HDAC6 (parent)
chain: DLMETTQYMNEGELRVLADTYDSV

Variants of: B1
Assay: protein stability index of a GFP-peptide fusion (GPS, HEK-293T) (PSI 1-6); higher = more stable;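 note: lentivirally expressed fusions sorted by FACS into six bins by GFP to DsRed ratio, PSI derived from sequencing read proportions per bin multiplied by bin number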
Conditions: c terminus: a fixed tail appended
// class assignment uses protein stability index with these ranges: class 0 (below 2), class 1 (2 to below 3), class 2 (3 or more)

Examples from the recorded data:
DLMETTQYMNELELRVLADTYDSV :: class 2
DLMETTQYMNEGEIRVLADTYDSV :: class 1

QUERY: Lab log: DLMETTQYMNEGELRVLEDTYDSV — assign protein stability index category
RESULT: class 1

QUERY: Lab log: DLMETTQYMNEGELRVLADLYDSV — assign protein stability index category
RESULT: class 0

QUERY: Lab log: DLMMTTQYMNEGELRVLADTYDSV — assign protein stability index category
RESULT: class 0

QUERY: Lab log: DLMETTQYMNEGELRVLADTYPSV — assign protein stability index category
RESULT: class 0

QUERY: Lab log: DLMETTQYMNEGELRVLADTYDGV — assign protein stability index category
RESULT: class 1

QUERY: Lab log: DLMETTQTMNEGELRVLADTYDSV — assign protein stability index category
RESULT: class 2

QUERY: Lab log: DLMETTQYMNEGELAVLADTYDSV — assign protein stability index category
RESULT: class 0

QUERY: Lab log: DLMETTQYMNEGELVVLADTYDSV — assign protein stability index category
RESULT: class 1

QUERY: Lab log: DLMETTQDMNEGELRVLADTYDSV — assign protein stability index category
RESULT: class 2

QUERY: Lab log: DLMETYQYMNEGELRVLADTYDSV — assign protein stability index category
RESULT: class 0

QUERY: Lab log: DLMETTQYMNGGELRVLADTYDSV — assign protein stability index category
RESULT: class 2

QUERY: Lab log: DLMECTQYMNEGELRVLADTYDSV — assign protein stability index category
RESULT: class 1

QUERY: Lab log: DLMETTQYMNEGELRVLADTYDNV — assign protein stability index category
RESULT: class 1

QUERY: Lab log: DLMETTQYMNEIELRVLADTYDSV — assign protein stability index category
RESULT: class 1

QUERY: Lab log: DLMETTQYMNEGELDVLADTYDSV — assign protein stability index category
RESULT: class 2

QUERY: Lab log: DLMETTQYMNEGSLRVLADTYDSV — assign protein stability index category
RESULT: class 2

QUERY: Lab log: DLMQTTQYMNEGELRVLADTYDSV — assign protein stability index category
RESULT: class 2

QUERY: Lab log: DLMDTTQYMNEGELRVLADTYDSV — assign protein stability index category
RESULT: class 1

QUERY: Lab log: DLMETTQYMNEGELRDLADTYDSV — assign protein stability index category
RESULT: class 2

QUERY: Lab log: DKMETTQYMNEGELRVLADTYDSV — assign protein stability index category
RESULT: class 2

QUERY: Lab log: DLMETRQYMNEGELRVLADTYDSV — assign protein stability index category
RESULT: class 1

QUERY: Lab log: DLMETCQYMNEGELRVLADTYDSV — assign protein stability index category
RESULT: class 1

QUERY: Lab log: DLMFTTQYMNEGELRVLADTYDSV — assign protein stability index category
RESULT: class 0

QUERY: Lab log: DLMETTQYMNMGELRVLADTYDSV — assign protein stability index category
RESULT: class 2

Values were extracted from the supplement of paper PMC10567573.
